test system: MOLT-4; assay: Growth inhibition of human MOLT4 cells assessed as cell growth at 100 uM incubated for 48 hrs by sulforhodamine B assay relative to control; assay type: functional; settings: MOLT-4, 48 h, read-out: Activity
Recorded growth at 100 µM, one value per entry.
Write it as a number; the unit % goes unstated.

>>> print(df.to_string())
                               input_smiles  unit_abbreviation  experimental_value
0  COc1cc(Cl)cc(-c2nn(-c3cccc(NC(=O)Nc4cccc(C(F)(F)F)c4)c3)cc2-c2ccncc2)c1                  %                 -36
1  COc1cc(Cl)cc(-c2nn(-c3cccc(NC(=O)Nc4cc(C(F)(F)F)cc(C(F)(F)F)c4)c3)cc2-c2ccncc2)c1                  %                 -34
2  COc1cc(Cl)cc(-c2nn(-c3cccc(NC(=O)Nc4ccc(Cl)c(Cl)c4)c3)cc2-c2ccncc2)c1                  %                  -7

// returns growth at 100 µM for O=C(Nc1cccc(-n2cc(-c3ccncc3)c(-c3cc(O)cc(Cl)c3)n2)c1)c1ccc(N2CCOCC2)c(C(F)(F)F)c1 with MOLT-4; value = -20

Origin of values: ChEMBL document CHEMBL4308841
